- TARGET_ENTITY: Ascaris suum complex II (Ascaris suum, UniProt O44074+P92506+P92507)
- Construct: the purified complex II prepared according to the method of F. Saruta et al; from tissue; complex II purified by the method of Saruta et al. 1995
- Sequence (Q33862 19-645): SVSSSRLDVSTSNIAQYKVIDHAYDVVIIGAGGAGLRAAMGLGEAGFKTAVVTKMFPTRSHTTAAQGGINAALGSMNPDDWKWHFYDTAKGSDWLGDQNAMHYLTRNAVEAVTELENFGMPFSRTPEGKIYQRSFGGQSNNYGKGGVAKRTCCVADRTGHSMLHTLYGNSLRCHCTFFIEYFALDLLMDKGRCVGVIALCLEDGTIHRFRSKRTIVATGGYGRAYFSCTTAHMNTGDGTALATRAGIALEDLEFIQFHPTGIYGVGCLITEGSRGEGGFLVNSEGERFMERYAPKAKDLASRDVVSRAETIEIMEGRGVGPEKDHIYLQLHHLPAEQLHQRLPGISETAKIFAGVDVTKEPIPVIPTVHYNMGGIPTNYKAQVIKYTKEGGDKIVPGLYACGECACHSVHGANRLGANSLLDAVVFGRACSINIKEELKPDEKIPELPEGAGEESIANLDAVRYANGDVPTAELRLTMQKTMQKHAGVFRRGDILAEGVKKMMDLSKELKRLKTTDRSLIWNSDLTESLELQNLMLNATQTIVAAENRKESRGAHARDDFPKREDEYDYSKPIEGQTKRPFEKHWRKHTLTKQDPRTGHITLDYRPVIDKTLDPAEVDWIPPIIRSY
- Sequence (P92506 32-188): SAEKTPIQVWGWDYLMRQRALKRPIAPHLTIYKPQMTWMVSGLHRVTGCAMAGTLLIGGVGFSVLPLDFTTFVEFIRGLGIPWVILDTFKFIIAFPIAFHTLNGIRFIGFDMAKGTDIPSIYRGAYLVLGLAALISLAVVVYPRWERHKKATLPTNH
- Sequence (O44074 22-282): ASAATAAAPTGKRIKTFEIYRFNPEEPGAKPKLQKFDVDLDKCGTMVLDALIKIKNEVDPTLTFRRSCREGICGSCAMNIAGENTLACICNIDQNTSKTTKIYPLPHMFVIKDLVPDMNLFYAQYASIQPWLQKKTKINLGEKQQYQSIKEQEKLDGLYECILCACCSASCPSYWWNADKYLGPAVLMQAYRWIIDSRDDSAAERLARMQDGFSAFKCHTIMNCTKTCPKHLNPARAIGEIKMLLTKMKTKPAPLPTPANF
- Sequence (P92507 26-156): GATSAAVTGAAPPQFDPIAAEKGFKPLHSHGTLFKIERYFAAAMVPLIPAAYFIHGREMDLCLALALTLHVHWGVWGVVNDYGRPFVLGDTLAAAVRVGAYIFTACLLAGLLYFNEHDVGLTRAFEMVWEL
- PROTOCOL_DETAILS: Inhibition of succinate dehydrogenase activity of Ascaris suum complex II (DCIP reduction)
- Assay type: biochemical
- STATED_CONDITIONS: purified Ascaris suum complex II; ubiquinone-2, DCIP, 10 mM succinate, pH 7.5, 25° C.; read-out: 50% inhibitory concentration of the complex II (IC50), Ascaris suum
# pIC50 listing for each entry below
Convention used: pIC50 is expressed as -log10 of the molar concentration.

Some solved entries appear below for comparison.
molecule="C/C=C/CC(C)C(=O)c1c(O)c(OC)c(OC)[nH]c1=O (stereo not drawn)" target_entity="Ascaris suum complex II (Ascaris suum, UniProt O44074+P92506+P92507)" assay_result=5.70
molecule="COc1nc(O)c(C(=O)C(C)CC(C)C(C)Cl)c(O)c1OC (stereo not drawn)" target_entity="Ascaris suum complex II (Ascaris suum, UniProt O44074+P92506+P92507)" assay_result=6.66

The molecule CCC(C)CC(C)C(=O)c1c(O)nc(OC)c(OC)c1O (stereo not drawn) showed pIC50 equal to 7.30

###

- TARGET_ENTITY: bovine heart complex II (succinate-ubiquinone oxidoreductase) (Bos taurus, UniProt P35720+Q3T189+Q95123)
- Construct: of the bovine heart, mitochondria prepared according to the method of S. Takamiya et al; from tissue; host or cells: bovine heart mitochondria
- Sequence (P31039 44-665 partner): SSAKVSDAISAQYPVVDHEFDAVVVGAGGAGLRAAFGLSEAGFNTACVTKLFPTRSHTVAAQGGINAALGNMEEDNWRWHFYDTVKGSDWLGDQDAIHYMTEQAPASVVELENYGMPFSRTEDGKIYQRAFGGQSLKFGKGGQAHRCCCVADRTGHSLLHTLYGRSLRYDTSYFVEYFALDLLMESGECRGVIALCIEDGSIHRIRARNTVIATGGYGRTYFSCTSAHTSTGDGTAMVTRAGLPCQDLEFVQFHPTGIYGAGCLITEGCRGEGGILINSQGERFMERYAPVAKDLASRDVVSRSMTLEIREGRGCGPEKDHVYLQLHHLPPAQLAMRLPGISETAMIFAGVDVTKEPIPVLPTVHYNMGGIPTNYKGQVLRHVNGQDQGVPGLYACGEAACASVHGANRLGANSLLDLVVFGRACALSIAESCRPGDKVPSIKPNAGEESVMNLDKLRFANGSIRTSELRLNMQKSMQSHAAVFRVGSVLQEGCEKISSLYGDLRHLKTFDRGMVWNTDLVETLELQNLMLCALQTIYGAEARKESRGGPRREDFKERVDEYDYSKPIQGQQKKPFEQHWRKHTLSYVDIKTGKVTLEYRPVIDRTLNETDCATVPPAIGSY
- Sequence (Q3T189 29-280): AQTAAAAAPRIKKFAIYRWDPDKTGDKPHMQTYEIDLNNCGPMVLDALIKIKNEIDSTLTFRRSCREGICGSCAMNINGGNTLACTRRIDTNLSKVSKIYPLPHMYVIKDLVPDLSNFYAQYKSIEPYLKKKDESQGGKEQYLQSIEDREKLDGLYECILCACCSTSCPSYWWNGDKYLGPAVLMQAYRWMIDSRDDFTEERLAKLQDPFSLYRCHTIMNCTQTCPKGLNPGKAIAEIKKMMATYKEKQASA
- Sequence (P35720 30-169): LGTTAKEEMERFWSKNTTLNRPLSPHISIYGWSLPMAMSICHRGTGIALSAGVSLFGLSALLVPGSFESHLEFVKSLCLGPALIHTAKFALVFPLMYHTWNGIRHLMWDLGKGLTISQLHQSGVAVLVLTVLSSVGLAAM
- Sequence (Q95123 56-158): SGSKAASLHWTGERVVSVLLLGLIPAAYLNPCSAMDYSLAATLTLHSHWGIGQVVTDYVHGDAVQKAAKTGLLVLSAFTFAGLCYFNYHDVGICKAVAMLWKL
- PROTOCOL_DETAILS: Inhibition of succinate dehydrogenase activity of bovine heart complex II (DCIP reduction)
- Assay type: biochemical
- STATED_CONDITIONS: bovine heart mitochondria; ubiquinone-2, DCIP, 10 mM succinate, pH 7.5, 25° C.; read-out: 50% inhibitory concentration of the complex II (IC50), Bovine heart
ENDPOINT: IC50

compound="O=C(CC(=O)C(F)(F)F)c1cccs1 [Thenoyltrifluoro Aceton, thenoyltrifluoroacetone, reference compound]" endpoint=IC50 assay_result="5.8 µM"
compound="COc1nc(O)c(C(=O)C(C)CC(C)C(C)Cl)c(O)c1OC (centres unmarked)" endpoint=IC50 assay_result="0.011 µM"

response.value for C/C=C/CC(C)C(=O)c1c(O)c(OC)c(OC)[nH]c1=O (centres unmarked) (field: IC50) = 0.017 µM

compound CCC(C)CC(C)C(=O)c1c(O)nc(OC)c(OC)c1O (centres unmarked) , IC50 observed: 0.01 µM

Noted for CC1=C(C(=O)Nc2ccccc2)SCCO1 [Carboxin, carboxin, reference compound] : its IC50 reads 1.1 µM

###

- TARGET_ENTITY: rat liver complex II (Rattus norvegicus, UniProt P21913+Q641Z9+Q6PCT8)
- Construct: from tissue; host or cells: rat liver mitochondria
- Sequence (Q920L2 35-656 partner): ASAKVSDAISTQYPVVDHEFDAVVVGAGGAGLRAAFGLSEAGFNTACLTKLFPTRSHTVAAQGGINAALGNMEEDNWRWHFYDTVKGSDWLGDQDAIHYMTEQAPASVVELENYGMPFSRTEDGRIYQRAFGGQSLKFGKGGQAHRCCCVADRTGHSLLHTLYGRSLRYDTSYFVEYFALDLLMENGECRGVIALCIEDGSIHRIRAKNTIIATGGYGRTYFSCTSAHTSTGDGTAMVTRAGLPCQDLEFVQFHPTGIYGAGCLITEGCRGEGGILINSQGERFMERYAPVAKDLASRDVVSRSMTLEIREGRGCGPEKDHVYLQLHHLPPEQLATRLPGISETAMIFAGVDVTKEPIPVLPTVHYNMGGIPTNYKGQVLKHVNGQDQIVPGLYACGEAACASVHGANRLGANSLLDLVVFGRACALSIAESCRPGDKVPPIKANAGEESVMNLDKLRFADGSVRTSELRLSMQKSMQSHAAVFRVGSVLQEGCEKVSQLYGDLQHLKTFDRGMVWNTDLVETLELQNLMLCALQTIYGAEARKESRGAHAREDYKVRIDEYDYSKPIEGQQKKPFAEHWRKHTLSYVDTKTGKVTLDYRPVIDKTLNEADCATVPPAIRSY
- Sequence (P21913 31-282): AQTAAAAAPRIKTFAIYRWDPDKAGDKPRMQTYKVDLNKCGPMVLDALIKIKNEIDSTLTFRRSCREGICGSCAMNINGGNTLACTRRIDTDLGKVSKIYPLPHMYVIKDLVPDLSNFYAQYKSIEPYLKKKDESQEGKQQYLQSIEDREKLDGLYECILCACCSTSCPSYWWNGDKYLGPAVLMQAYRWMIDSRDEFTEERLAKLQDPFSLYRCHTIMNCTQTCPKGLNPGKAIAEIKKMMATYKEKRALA
- Sequence (Q641Z9 30-169 limits assumed): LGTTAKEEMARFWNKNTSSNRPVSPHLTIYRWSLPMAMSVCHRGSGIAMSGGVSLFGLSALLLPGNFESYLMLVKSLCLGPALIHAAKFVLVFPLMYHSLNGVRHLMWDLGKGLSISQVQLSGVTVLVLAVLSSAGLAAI
- Sequence (Q6PCT8 57-159): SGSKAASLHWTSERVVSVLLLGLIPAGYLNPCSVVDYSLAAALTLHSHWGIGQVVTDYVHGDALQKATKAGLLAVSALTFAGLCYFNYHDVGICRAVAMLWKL
- PROTOCOL_DETAILS: Inhibition of succinate dehydrogenase activity of rat liver complex II (DCIP reduction)
- Format: biochemical
- STATED_CONDITIONS: rat liver mitochondria; ubiquinone-2, DCIP, 10 mM succinate, pH 7.5, 25° C.; read-out: 50% inhibitory concentration of the complex II (IC50), Rat liver
ENDPOINT: IC50
Please format your answer as a value with the unit trailing.

molecule="C/C=C/CC(C)C(=O)c1c(O)c(OC)c(OC)[nH]c1=O (stereo not drawn) [Harzianopyridone, harzianopyridone]" target_entity="rat liver complex II (Rattus norvegicus, UniProt P21913+Q641Z9+Q6PCT8)" assay_result="200 nM"

Entry CCC(C)CC(C)C(=O)c1c(O)nc(OC)c(OC)c1O (stereo not drawn) [Atpenin B, atpenin B] , IC50 reported as 20 nM

Reported IC50 for COc1nc(O)c(C(=O)C(C)CC(C)C(C)Cl)c(O)c1OC (stereo not drawn) [Atpenin A4, atpenin A4] was 24 nM

Value source: patent US7514455B2
